A collection of compounds and their measured GI50
System: HCT-15
Answer with a number only, understood to be in µM.

The cases that follow already have their GI50 on record.
{"Compound": "CC[C@H]1C=CCC[C@@]2(C[C@@H]3CC[C@@H]4[C@H](C(=O)OCCCCCCCCCCCCCCCC(=O)O)[C@]5(CCC[C@@H](C)O5)NC(=[N+]34)N2)O1", "GI50, µM": 0.525}
{"Compound": "CC(=O)N1CCN(c2ccc(OCC3COC(Cn4ccnc4)(c4ccc(Cl)cc4Cl)O3)cc2)CC1 (centres undefined)", "GI50, µM": 25.8}

// next item, GI50 requested
[Q] # query: GI50 of entry `O=CC(=C(I)I)c1ccccc1`
[A] 1.82
